experiment: ATG_PXRE_CIS: Attagene CIS-FACTORIAL HepG2 Assay for human Pregnane X Receptor Element (PXRE) (AID 2282957); details: HepG2 Attagene CIS-FACTORIAL PXRE reporter, mRNA; actives raise or lower the signal
Activity calls are given as the source filed them. How the source made its calls: active means hit-call score of the fitted dose curve at least 0.9, where 1 is the maximum; inactive means score below 0.9.
Outcomes you can answer with include only these: true (1) for active, false (0) for inactive

Each molecule tested received a call. Report the one for "Cc1ccc(N)cc1N" . false (0)

Each molecule tested received a call. Report the one for "CCCCN(CCCC)SN(C)C(=O)Oc1cccc2c1OC(C)(C)C2" . true (1)

Each molecule tested received a call. Report the one for CCCCC(CC)COP(=O)(Oc1ccccc1)Oc1ccccc1 (stereo not given) . true (1)

Each molecule tested received a call. Report the one for "C=CC(=O)OCC(CC)(COC(=O)C=C)COC(=O)C=C" . false (0)

Each molecule tested received a call. Report the one for "CC(=O)c1ccc(-c2ccccc2)cc1" . true (1)

Each molecule tested received a call. Report the one for CCCCC(CC)COC(=O)c1c(Br)c(Br)c(Br)c(Br)c1C(=O)OCC(CC)CCCC (stereo not given) . true (1)

Each molecule tested received a call. Report the one for "CCCCN(CC)C(=O)SCCC" . true (1)

Each molecule tested received a call. Report the one for "Clc1ccc(Oc2ccccc2)cc1" . false (0)

Each molecule tested received a call. Report the one for CCC1(c2ccccc2)C(=O)N=C(O)NC1=O (stereo not given) . true (1)

Each molecule tested received a call. Report the one for "NC(=O)C(F)(F)C(F)(F)F" . false (0)

Each molecule tested received a call. Report the one for "OCC(F)(F)OC(F)(F)C(F)(F)OC(F)(F)C(F)(F)OC(F)(F)CO" . true (1)

Each molecule tested received a call. Report the one for "c1ccc2c(c1)sc1ccccc12" . false (0)

Each molecule tested received a call. Report the one for "Nc1ccc(Sc2ccc(N)cc2)cc1" . true (1)

Each molecule tested received a call. Report the one for "CCOP(=S)(OCC)SCn1nnc2ccccc2c1=O" . true (1)

Each molecule tested received a call. Report the one for "CC(=O)CCc1ccc2c(c1)OCO2" . true (1)

Each molecule tested received a call. Report the one for "O=C(O)C(F)(F)OC(F)(F)C(F)(F)OC(F)(F)F" . false (0)

Each molecule tested received a call. Report the one for "CC1(C)CN=C(NN=C(/C=C/c2ccc(C(F)(F)F)cc2)/C=C/c2ccc(C(F)(F)F)cc2)NC1" . true (1)

Each molecule tested received a call. Report the one for O=S1(=O)OCC2C(CO1)C1(Cl)C(Cl)=C(Cl)C2(Cl)C1(Cl)Cl (stereo not given) . true (1)

Each molecule tested received a call. Report the one for "N#Cc1ccc(O)cc1" . false (0)

Each molecule tested received a call. Report the one for "Nc1cc2c3c(c1)C(c1ccccc1)=N[C@@H](NC(=O)c1cccnc1)C(=O)N3CC2" . true (1)

Each molecule tested received a call. Report the one for "CC(C)(C)OOC(C)(C)C" . false (0)

Each molecule tested received a call. Report the one for "CC(Cl)(Cl)C(=O)O" . false (0)

Each molecule tested received a call. Report the one for "ClC(Cl)(Cl)c1ccccc1" . true (1)

Each molecule tested received a call. Report the one for "ClC(Cl)=C(c1ccc(Cl)cc1)c1ccccc1Cl" . true (1)

Each molecule tested received a call. Report the one for "Cc1ccc2c(c1N)C(=O)c1ccccc1C2=O" . true (1)

Each molecule tested received a call. Report the one for "O=[N+]([O-])c1cc(Cl)ccc1Cl" . true (1)

Each molecule tested received a call. Report the one for "CCOc1ccc(C(C)(C)COCc2cccc(Oc3ccccc3)c2)cc1" . true (1)

Each molecule tested received a call. Report the one for "O=c1ssc(Cl)c1Cl" . false (0)

Each molecule tested received a call. Report the one for CC(Cc1ccc(OCC(=O)O)cc1)NCC(O)c1csc(C(F)(F)F)n1 (stereo not given) . false (0)

Each molecule tested received a call. Report the one for "CCOP(=O)(O)C(N)=O" . true (1)

Each molecule tested received a call. Report the one for FC(F)(F)C(F)(C(F)(F)F)C(F)(F)C(F)(F)CC1CO1 (stereo not given) . false (0)

Each molecule tested received a call. Report the one for ClC1=C(Cl)C2(Cl)C3C(Cl)C(Cl)CC3C1(Cl)C2(Cl)Cl (stereo not given) . true (1)

Each molecule tested received a call. Report the one for "O=[N+]([O-])c1ccccc1" . false (0)

Each molecule tested received a call. Report the one for "COP(N)(=S)OC" . true (1)

Each molecule tested received a call. Report the one for "CCOP(=S)(OCC)SCSCC" . true (1)

Each molecule tested received a call. Report the one for "Cn1[nH]nnc1=S" . false (0)

Each molecule tested received a call. Report the one for "OCC(F)(F)OC(F)(F)C(F)(F)OC(F)(F)C(F)(F)OC(F)(F)F" . false (0)

Each molecule tested received a call. Report the one for "COP(=O)(CCC(=O)NCO)OC" . false (0)

Each molecule tested received a call. Report the one for C=C(C)C(=O)OCC1CO1 (stereo not given) . false (0)

Each molecule tested received a call. Report the one for "CC1=C(C(=O)Nc2ccccc2)S(=O)(=O)CCO1" . true (1)

Each molecule tested received a call. Report the one for CCOP(=S)(Oc1ccc([N+](=O)[O-])cc1)c1ccccc1 (stereo not given) . true (1)

Each molecule tested received a call. Report the one for "Oc1ccccc1Br" . false (0)

Each molecule tested received a call. Report the one for "O=c1[nH]c2ccccc2c(=O)o1" . false (0)

Each molecule tested received a call. Report the one for CC(Cl)CN(C)C (stereo not given) . false (0)

Each molecule tested received a call. Report the one for "CN(C)C(=O)Cl" . false (0)

Each molecule tested received a call. Report the one for "Nc1ccc2ccccc2c1" . false (0)

Each molecule tested received a call. Report the one for O=P1(N(CCCl)CCCl)NCCCO1 (stereo not given) . false (0)

Each molecule tested received a call. Report the one for "O=C(O)C(F)(F)C(F)(F)C(=O)O" . false (0)

Each molecule tested received a call. Report the one for O=C(O)C(F)(OC(F)(F)C(F)(F)C(F)(F)F)C(F)(F)F (stereo not given) . false (0)

Each molecule tested received a call. Report the one for "Oc1ccc(I)cc1" . false (0)

Reference source: PubChem BioAssay (EPA / NIEHS)
